Sourced from PubChem BioAssay (NCI)

System: MOLT-4 leukemia
PROTOCOL_SUMMARY: NCI tumour cell line growth inhibition, 48 h
PARAMETER_MEASURED: TGI

# example entries with known answers
## Task Request: TGI, test system MOLT-4 leukemia, entry CCCN1C(=O)CCC2=C1CCc1c2ccc(Cl)c1Cl
## Result > 100 µM

## Task Request: TGI, test system MOLT-4 leukemia, entry C(=C1c2ccccc2-c2ccccc21)c1ccccn1
## Result > 100 µM

More entries:
## Task Request: TGI, test system MOLT-4 leukemia, entry Cc1cc(NS(=O)(=O)c2ccc(NC(=O)c3cccc4c(N)c5ccccc5nc34)cc2)no1
## Result > 100 µM

## Task Request: TGI, test system MOLT-4 leukemia, entry COC(CCP(=O)(c1ccccc1)c1ccccc1)(C(=O)c1ccccc1)c1ccccc1 (stereo not drawn)
## Result > 100 µM

## Task Request: TGI, test system MOLT-4 leukemia, entry NNC(=O)c1c(Cl)c(Cl)c(Cl)c(Cl)c1-c1nc2ccccc2[nH]1
## Result 26.3 µM

## Task Request: TGI, test system MOLT-4 leukemia, entry CCc1n[nH]c(=O)n1N1C(=O)C2CC=CCC2C1=O (stereo not drawn)
## Result > 100 µM

## Task Request: TGI, test system MOLT-4 leukemia, entry O=P(O)(O)C(CSc1ccccc1)P(=O)(O)O
## Result > 100 µM

## Task Request: TGI, test system MOLT-4 leukemia, entry CN1C(=O)CNC(=O)[C@H](NC(=O)c2nc3ccccc3cc2O)CSSC[C@H]1C(=O)NCCc1nc2ccccc2cc1O
## Result 14.8 µM

## Task Request: TGI, test system MOLT-4 leukemia, entry N=C(N)SCCc1cn2ccccc2n1
## Result > 100 µM

## Task Request: TGI, test system MOLT-4 leukemia, entry c1ccc(N=C2SC(=NNc3ccccc3)SC2=Nc2ccccc2)cc1
## Result > 100 µM

## Task Request: TGI, test system MOLT-4 leukemia, entry CC(NS(C)(=O)=O)c1ccccc1 (stereo not drawn)
## Result > 100 µM

## Task Request: TGI, test system MOLT-4 leukemia, entry CN(C)CCn1c2ccccc2c2nc3cc4ccccc4cc3nc21
## Result 4.1 µM

## Task Request: TGI, test system MOLT-4 leukemia, entry COc1ccc2c(c1)C/C(=C\c1ccc(O)c(OC)c1)C2=O
## Result > 100 µM
